# Test system: Pseudomonas aeruginosa
# experimentalDetails: Antibiofilm activity against Pseudomonas aeruginosa PAO1 in ABTGC medium assessed as biofilm biomass at MIC incubated for 24 hrs by crystal violet staining based assay relative to control
# Format: functional
endpointLabel: Activity (%)
The answer is to be given in %; state only the numeric part.

Example entries begin here.
O=C(CCC(=O)N1CCN(c2cc3c(cc2F)c(=O)c(C(=O)O)cn3C2CC2)CC1)NCc1cc(=O)c(O)c[nH]1
169.8
O=C(CCC(=O)N1CCN(c2cc3c(cc2F)c(=O)c(C(=O)O)cn3C2CC2)CC1)NCc1cc(=O)c(O)cn1O
137

GET /values?readout=Activity&system=Pseudomonas aeruginosa&item= Cc1cc(=O)c(O)c(CNC(=O)CCCCC(=O)N2CCN(c3cc4c(cc3F)c(=O)c(C(=O)O)cn4C3CC3)CC2)n1C
23.3

GET /values?readout=Activity&system=Pseudomonas aeruginosa&item= Cc1cc(=O)c(O)c(CNC(=O)CCC(CCC(=O)NCc2c(O)c(=O)cc(C)n2C)(CCC(=O)NCc2c(O)c(=O)cc(C)n2C)NC(=O)CCCC(=O)N2CCN(c3cc4c(cc3F)c(=O)c(C(=O)O)cn4C3CC3)CC2)n1C
12.7

GET /values?readout=Activity&system=Pseudomonas aeruginosa&item= Cn1cc(O)c(=O)cc1CNC(=O)CCCCC(=O)N1CCN(c2cc3c(cc2F)c(=O)c(C(=O)O)cn3C2CC2)CC1
86.4

* * *

# Tested on: Pseudomonas aeruginosa
# experimentalDetails: Antibacterial activity against Pseudomonas aeruginosa FB in MHB medium assessed as bacterial growth inhibition by CLSI based broth microdilution method
# Assay type: functional
endpointLabel: MIC (µM)
The answer is to be given in µM; state only the numeric part.

Example entries begin here.
Cn1cc(O)c(=O)cc1Cn1cc(CCC(=O)N2CCN(c3cc4c(cc3F)c(=O)c(C(=O)O)cn4C3CC3)CC2)nn1
108
Cc1cc(=O)c(O)cn1CCCNC(=O)CCC(=O)N1CCN(c2cc3c(cc2F)c(=O)c(C(=O)O)cn3C2CC2)CC1
3.36
Cn1cc(O)c(=O)cc1CNC(=O)CCCC(=O)N1CCN(c2cc3c(cc2F)c(=O)c(C(=O)O)cn3C2CC2)CC1
3.44

Param item = O=C(CCC(=O)N1CCN(c2cc3c(cc2F)c(=O)c(C(=O)O)cn3C2CC2)CC1)NCc1cc(=O)c(O)c[nH]1 ; retrieve measured MIC.
7.23

* * *

# System: Pseudomonas aeruginosa
# experimentalDetails: Antibacterial activity against Pseudomonas aeruginosa PAO1 in MHB medium assessed as bacterial growth inhibition by CLSI based broth microdilution method
# Type: functional
endpointLabel: MIC

Example entries begin here.
Cc1cc(=O)c(O)c(CNC(=O)CCCCCCC(=O)N2CCN(c3cc4c(cc3F)c(=O)c(C(=O)O)cn4C3CC3)CC2)n1C
> 200 µM
Cc1cc(=O)c(O)c(CNC(=O)CCC(N)(CCC(=O)NCc2c(O)c(=O)cc(C)n2C)CCC(=O)NCc2c(O)c(=O)cc(C)n2C)n1C
> 200 µM

Next:
GET /values?readout=MIC&system=Pseudomonas aeruginosa&item= O=C(CCC(=O)N1CCN(c2cc3c(cc2F)c(=O)c(C(=O)O)cn3C2CC2)CC1)NCc1ccccc1
> 200 µM
